experiment: NCI Yeast Anticancer Drug Screen. Data for the rad50 strain (AID 155);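 further: 0% = growth of vehicle-only cultures of the same strain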; conditions: S. cerevisiae rad50 strain growth inhibition; at 50.0 µM
About 79,000 compounds went through this panel and 15% of them were active in at least one assay; those are over-represented in the sample as a whole. The source made the active and inactive calls. No stated cut-off is given here; in the data, active means growth inhibition above about 70%; inactive means the rest.
Possible outcomes: active, inactive

- Compound: "O=Cc1ccc(N2CCCCC2)cc1"
  Class label: "inactive"
- Compound: "CC(=O)OCC(=O)C1(O)CCC2C3CCC4=CC(=O)CCC4(C)C3(SC#N)CC(=O)C21C (stereo not given)"
  Class label: "inactive"
- Compound: "C/C(=N\\NC(=O)c1ccncc1)c1cccc(F)c1"
  Class label: "inactive"
- Compound: "COC(=O)C1N=CSCC1(C)O (stereo not given)"
  Class label: "inactive"
- Compound: "c1cnn([B-]2(n3cccn3)n3ccc[n+]3[B-](n3cccn3)(n3cccn3)n3ccc[n+]32)c1"
  Class label: "inactive"
- Compound: "CC12CCC(=O)C3C1CCCC32"
  Class label: "inactive"
- Compound: "CN(C)CCNC1=CC(=O)c2nc3ccccc3c3ccnc1c23"
  Class label: "inactive"
- Compound: "O=C(NC1CCCCC1)Oc1ccc[nH]c1=O"
  Class label: "inactive"
- Compound: "COc1cc(N=Nc2cccc(S(=O)(=O)O)c2)ccc1NC(=O)c1ccc(C(=O)Nc2ccc(N=Nc3cccc(S(=O)(=O)O)c3)cc2OC)cc1"
  Class label: "inactive"
- Compound: "C/C=C/C=C/c1nc(C#N)c(N)o1"
  Class label: "inactive"
- Compound: "CC(=O)NCCc1nc(-c2nc(C(=O)NCCC(C)C)cs2)cs1"
  Class label: "inactive"
- Compound: "Cc1ccc(S(=O)(=O)N(c2cc(C)ccc2C)c2ccccc2N)cc1"
  Class label: "inactive"
- Compound: "C/C(CC(=O)Nc1ccc(C)c(C)c1)=N\\NC(N)=S"
  Class label: "inactive"
- Compound: "O=C(O)CCC(C(=O)O)N(Cc1ccccc1)Cc1ccccc1 (stereo not given)"
  Class label: "inactive"
- Compound: "O=C(Nc1ccccc1)Nc1ccc(-c2ccccc2)cc1"
  Class label: "inactive"
- Compound: "CC(C)CSc1nc(N)nc2c1ncn2CC(C)C"
  Class label: "inactive"
- Compound: "CCN(CC)CCNCc1c[nH]c(=S)[nH]c1=O"
  Class label: "inactive"
- Compound: "CCCOC(=O)C(=O)OCCC"
  Class label: "inactive"
- Compound: "Sc1ccccc1N=Cc1ccc(C=Nc2ccccc2S)cc1"
  Class label: "inactive"
- Compound: "CN(C)C(=O)Nc1cccc2nsnc12"
  Class label: "inactive"
- Compound: "O=C(Nc1ccccc1C(=O)N/N=C/c1ccccc1O)c1ccccc1Cl"
  Class label: "active"
- Compound: "CC(=O)C1CCN(Cc2ccccc2)C1 (stereo not given)"
  Class label: "inactive"
- Compound: "CC(C)=NOC(CCOC(=O)c1ccccc1)COC(=O)c1ccccc1 (stereo not given)"
  Class label: "inactive"
- Compound: "C#CCN(Cc1ccc2nc(-c3ccccc3)c(Cl)nc2c1)c1ccc(Cl)c(Cl)c1"
  Class label: "inactive"
- Compound: "CC1(C)OC(=O)c2ccccc21"
  Class label: "inactive"

###

experiment: NCI Yeast Anticancer Drug Screen. Data for the cln2 rad14 strain (AID 165);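 further: 0% = growth equal to vehicle treated cultures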; conditions: S. cerevisiae cln2 rad14 strain, at 50.0 µM, active compounds read high
The panel holds about 79,000 compounds, 15% with a hit somewhere; the sample as a whole holds those more often. Activity calls are given as the source filed them. Rule as the data show it: active = growth inhibition above about 70%; inactive = the rest.
Each entry below carries its reported growth inhibition.
Test readout: growth inhibition

- Molecule: "CCOc1cc(/C=N/NC(=O)c2ccccc2NC(=O)c2ccccc2)ccc1OC"
  Recorded result: "-4.1% (inactive)"
- Molecule: "NC(=O)c1ccccc1OC(=O)Nc1ccccc1"
  Recorded result: "17.2% (inactive)"
- Molecule: "CC(C(=O)O)/C(=C\\c1ccc2c(c1)OCO2)C(=O)O (stereo not given)"
  Recorded result: "-7.7% (inactive)"
- Molecule: "Cc1ccc(S(=O)(=O)N/N=C2\\C3CC4CC(C3)C2C4)cc1 (stereo not given)"
  Recorded result: "-6.5% (inactive)"
- Molecule: "CC[N+](CC)(CCO)CCCCCCCCCC[N+](CC)(CC)CCO"
  Recorded result: "-15.3% (inactive)"
- Molecule: "[N-]=[N+]=Nc1ccc2[nH]c3ccccc3c(=O)c2c1"
  Recorded result: "-23.4% (inactive)"
- Molecule: "CCCCCCCCCCCCCCCCOc1ccc2ccccc2c1"
  Recorded result: "-56.4% (inactive)"
- Molecule: "Brc1ccc(-c2ccc(-c3ccc(Br)cc3)s2)cc1"
  Recorded result: "19.8% (inactive)"
- Molecule: "COc1cc(OC)c2nccc(NCCCN(C)C)c2c1[N+](=O)[O-]"
  Recorded result: "21.6% (inactive)"
- Molecule: "C[Si](C)(C)Oc1cc(N=NNC2=CC(=O)c3ccccc3C2=O)c(O)c2ccccc12"
  Recorded result: "-24% (inactive)"
- Molecule: "CCN(CC)CCOc1ccc(OC)cc1"
  Recorded result: "-35.2% (inactive)"
- Molecule: "C/C(=N/O)c1ccc(C(F)(F)F)cc1"
  Recorded result: "-17.9% (inactive)"
- Molecule: "CCN(c1ccccc1C(=O)O)S(=O)(=O)c1ccc(C)cc1"
  Recorded result: "27.6% (inactive)"
- Molecule: "CC(Oc1ccc([N+](=O)[O-])cc1)c1ccccc1 (stereo not given)"
  Recorded result: "-37.1% (inactive)"
- Molecule: "CCCCn1c(-c2ccccc2)cs/c1=N\\N=C1C=C(C(C)(C)C)C(=O)C(C(C)(C)C)=C1"
  Recorded result: "-35.2% (inactive)"
- Molecule: "Nc1ccc(C(=O)O)cc1Cl"
  Recorded result: "-35.5% (inactive)"
- Molecule: "Nc1[nH]c(=O)nc2c1cnn2Cc1ccccc1"
  Recorded result: "-12.2% (inactive)"
- Molecule: "CC1(C)CC2(C)NCCN2C(=S)N1 (stereo not given)"
  Recorded result: "12.2% (inactive)"
- Molecule: "Cc1c(-c2coc(-c3ccc(Cl)cc3)n2)c(=O)n(-c2ccccc2)n1C"
  Recorded result: "-9.9% (inactive)"
- Molecule: "Cc1cc2[nH]c(=O)c(=O)[nH]c2cc1C"
  Recorded result: "17.7% (inactive)"
- Molecule: "CCOC(=O)c1c(N)sc2c1C(C(=O)OCC)CC2 (stereo not given)"
  Recorded result: "-0.8% (inactive)"
- Molecule: "O=C1NCC/C1=C\\c1ccc(Cl)c(Cl)c1"
  Recorded result: "-17.6% (inactive)"
- Molecule: "Cc1ccc(/C(=C/CN2CC3CCC(CC3)C2)c2ccccc2)cc1"
  Recorded result: "-14.3% (inactive)"
- Molecule: "CC(C)(C)c1ccc(SC(=O)Nc2cccc(Cl)c2Cl)cc1"
  Recorded result: "13.8% (inactive)"
- Molecule: "N#CC(C#N)=C/C=C/C=C/c1c(Cl)cccc1Cl"
  Recorded result: "-3.25% (inactive)"
